Test: in vitro
Details: mouse, liver microsomes
readout.name: CLint scaled (mL/min/kg)

P = O[C@@](CCN1CCCCC1)(c1ccccc1)C1CCCCC1 [(R)-THP, (R)-trihexyphenidyl]
Q = O[C@](CCN1CCCCC1)(c1ccccc1)C1CCCCC1 [(S)-THP, (S)-trihexyphenidyl]
Q: CLint scaled comparison. Which is larger, P or Q ? Write the label of whichever entry you select.
Ans: P

###

Target: human muscarinic receptor M3 (Homo sapiens, UniProt P20309)
Sequence (P20309 whole entry): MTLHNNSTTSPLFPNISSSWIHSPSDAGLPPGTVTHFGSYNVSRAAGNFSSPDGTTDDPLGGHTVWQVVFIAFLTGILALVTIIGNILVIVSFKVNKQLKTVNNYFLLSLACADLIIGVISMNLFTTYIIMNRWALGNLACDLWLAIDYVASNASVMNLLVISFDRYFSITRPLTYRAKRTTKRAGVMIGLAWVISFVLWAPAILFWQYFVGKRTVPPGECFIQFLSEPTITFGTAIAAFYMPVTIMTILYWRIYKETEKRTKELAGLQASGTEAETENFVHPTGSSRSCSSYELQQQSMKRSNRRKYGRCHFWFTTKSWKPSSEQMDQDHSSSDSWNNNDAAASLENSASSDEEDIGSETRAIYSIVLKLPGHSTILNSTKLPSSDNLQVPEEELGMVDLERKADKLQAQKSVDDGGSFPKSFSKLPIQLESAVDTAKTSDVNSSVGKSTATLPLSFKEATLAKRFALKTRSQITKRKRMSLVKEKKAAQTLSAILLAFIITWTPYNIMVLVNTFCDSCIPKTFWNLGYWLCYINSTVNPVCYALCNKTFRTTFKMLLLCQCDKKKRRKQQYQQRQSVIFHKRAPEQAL
Assay: cell-based
pEC50: −log10 of the molar value.
readout.name: pEC50

1 = C[C@H](C[N+](C)(C)C)OC(N)=O.[Cl-] [(R)-BTC, (R)-bethanechol, reference compound]
2 = C[C@@H](C[N+](C)(C)C)OC(N)=O.[Cl-] [(S)-BTC, (S)-bethanechol]
Q: I'm curious, which of these has a smaller pEC50 number: 1 or 2 ? Write the label of whichever entry you select.
Ans: 1
(1: 5.12, 2: 7.68)

###

Target: CYP3A4 (Homo sapiens, UniProt P08684)
Sequence (P08684 whole entry): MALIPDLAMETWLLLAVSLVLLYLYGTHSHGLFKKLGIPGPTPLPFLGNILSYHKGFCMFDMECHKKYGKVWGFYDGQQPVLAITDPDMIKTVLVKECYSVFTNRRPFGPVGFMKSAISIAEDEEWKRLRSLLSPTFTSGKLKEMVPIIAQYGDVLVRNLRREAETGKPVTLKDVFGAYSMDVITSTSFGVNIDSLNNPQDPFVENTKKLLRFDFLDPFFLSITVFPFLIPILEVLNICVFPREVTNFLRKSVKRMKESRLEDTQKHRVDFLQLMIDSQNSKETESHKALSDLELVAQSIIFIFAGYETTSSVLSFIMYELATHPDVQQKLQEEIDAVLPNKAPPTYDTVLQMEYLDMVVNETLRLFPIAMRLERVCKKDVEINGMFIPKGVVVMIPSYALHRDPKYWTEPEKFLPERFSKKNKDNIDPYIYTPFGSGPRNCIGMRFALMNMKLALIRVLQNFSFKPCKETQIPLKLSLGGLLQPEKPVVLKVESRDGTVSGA
Test: Incubation with recombinant CYP3A4
Conditions: human
readout.name: half-life (min)
Numbers only here, please. The scale is min.

Q: Hello, I am looking for reported half-life with CYP3A4 (Homo sapiens, UniProt P08684) for O[C@@](CCN1CCCCC1)(c1ccccc1)C1CCCCC1 [(R)-THP, (R)-trihexyphenidyl] . Could you help?
Ans: 30.7

###

Assay: in vitro
Conditions: mouse, liver microsomes
readout.name: half-life at 1 μM (min)

a = O[C@](CCN1CCCCC1)(c1ccccc1)C1CCCCC1 [(S)-THP, (S)-trihexyphenidyl]
b = O[C@@](CCN1CCCCC1)(c1ccccc1)C1CCCCC1 [(R)-THP, (R)-trihexyphenidyl]
Q: half-life at 1 μM comparison. Which is larger, a or b ? Write the label of whichever entry you select.
Ans: a

###

Assay: Liver microsome stability, human
Details: human, liver microsomes, in vitro t1/2, human liver microsomes; Example 15, Table 20
Protocol: For the liver microsome assay: • 1. The master solution was prepared according to Table 3. All liver microsome samples were purchased from BD Gentest. • 2. Two separate experiments were performed as follows: (i) With Cofactors (NADPH): 25 μL of 10 mM NADPH was added to the incubations. […] The reaction was started with the addition of 2.5 μL of 100 μM control compound or test compound solutions. […] Aliquots of 30 μL were taken from the reaction solution at 0.5, 5, 15, 30 and 60 minutes. […]
readout.name: half-life at 1 μM (min)

a = O[C@](CCN1CCCCC1)(c1ccccc1)C1CCCCC1 [(S)-THP, (S)-trihexyphenidyl]
b = O[C@@](CCN1CCCCC1)(c1ccccc1)C1CCCCC1 [(R)-THP, (R)-trihexyphenidyl]
Q: half-life at 1 μM comparison. Which is larger, a or b ? Write the label of whichever entry you select.
Ans: b
(b: 69.7 min, a: 24.2 min)

###

Assay: In vivo PK of (S)-BTC in rats: plasma, brain, CSF
Details: male, Sprague Dawley; plasma, rat, 10 mg/kg single oral dose, mean
readout.name: half-life (h)
Numbers only here, please. The scale is h.

Q: Fill blank: measured half-life of the compound C[C@@H](C[N+](C)(C)C)OC(N)=O.[Cl-] [(S)-BTC, (S)-bethanechol] is ____.
Ans: 1.81

###

Test: In vivo PK of (S)-BTC in rats: plasma, brain, CSF
Details: male, Sprague Dawley, rat, brain and plasma, po, 10 mg/kg, 10 mg/kg single oral dose, read-out: AUClast Ratio (Brain/Plasma)
readout.name: Kp
Answer with a bare number; do not write a unit.

Q: Fill blank: measured Kp of the compound C[C@@H](C[N+](C)(C)C)OC(N)=O.[Cl-] [(S)-BTC, (S)-bethanechol] is ____.
Ans: 0.0499

###

Target: human muscarinic receptor M5 (Homo sapiens)
Sequence (P08912 whole entry): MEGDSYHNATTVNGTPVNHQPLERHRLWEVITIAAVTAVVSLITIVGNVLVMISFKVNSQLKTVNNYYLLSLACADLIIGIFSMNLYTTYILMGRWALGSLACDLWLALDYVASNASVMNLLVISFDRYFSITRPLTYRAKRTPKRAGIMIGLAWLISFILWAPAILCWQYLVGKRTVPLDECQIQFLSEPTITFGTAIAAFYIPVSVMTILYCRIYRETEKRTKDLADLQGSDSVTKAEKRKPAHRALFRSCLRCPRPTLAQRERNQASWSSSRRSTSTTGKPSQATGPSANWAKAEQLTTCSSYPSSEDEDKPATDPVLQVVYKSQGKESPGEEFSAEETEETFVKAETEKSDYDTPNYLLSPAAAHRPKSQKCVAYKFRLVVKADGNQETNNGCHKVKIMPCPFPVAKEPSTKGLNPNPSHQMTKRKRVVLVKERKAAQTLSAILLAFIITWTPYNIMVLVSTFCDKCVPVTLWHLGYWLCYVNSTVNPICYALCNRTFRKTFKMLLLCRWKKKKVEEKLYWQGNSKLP
Experiment: Calcium flux assay (FLIPR), CHO cells expressing human M5
Settings: agonist mode
readout.name: EC50 (nM)
Numbers only here, please. The scale is nM.

Q: Fill blank: measured EC50 of the compound C[C@@H](C[N+](C)(C)C)OC(N)=O.[Cl-] [(S)-BTC, (S)-bethanechol] is ____.
Ans: 124

###

Test: In vivo PK of (S)-BTC in rats: plasma, brain, CSF
Conditions: male, Sprague Dawley, rat, CSF and plasma, po, 10 mg/kg, 10 mg/kg single oral dose, read-out: Cmax Ratio (CSF/Plasma)
readout.name: Kp
Answer with a bare number; do not write a unit.

Q: Fill blank: measured Kp of the compound C[C@@H](C[N+](C)(C)C)OC(N)=O.[Cl-] [(S)-BTC, (S)-bethanechol] is ____.
Ans: 0.00553
